# key: entry, value: binding signal
molecular target: OsWRKY34 (Oryza sativa, UniProt Q0JBA9 1-250); assay: protein-binding microarray (RPBM); PBS, 2% BSA, 51.3 ng/ul salmon testes DNA, 50 uM zinc acetate, 200 nM TF, 25 C, 1 h; high values mean tight binding; details: protein: recombinant; tags: N-terminal polyhistidine and DsRed monomer fusion (pET32a); label: CyDye5-dUTP incorporated in the synthesized complementary strand; 3' TTTTT single-stranded linker to array surface; dsDNA, one strand shown
Sequence (Q0JBA9 entry or part of it): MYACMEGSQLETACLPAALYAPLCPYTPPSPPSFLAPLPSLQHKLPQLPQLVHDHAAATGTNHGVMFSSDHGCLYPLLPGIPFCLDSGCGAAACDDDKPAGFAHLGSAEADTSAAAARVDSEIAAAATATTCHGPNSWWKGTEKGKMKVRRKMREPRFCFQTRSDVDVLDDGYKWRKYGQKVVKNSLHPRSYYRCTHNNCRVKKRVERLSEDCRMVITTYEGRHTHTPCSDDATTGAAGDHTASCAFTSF
In all, about 68,000 sequences were measured (“fluorescence intensity (a.u.)”: median about 9,100, highest 2% from about 16,000 on). Only a selection was taken, and the highest values are over-represented in it overall.

Some sequences with recorded binding signal:
>>> measurement("TTTTTGGGTGGGAGTTGTATTTTTTTAACATGTGGGAAAACGGAGTCACCTAGTGCAG")
"21300 fluorescence intensity (a.u.)"
>>> measurement("CACTACCTCAGTATTCTCTACTACTACTCTTTTCTCAGAGCGGAGTCACCTAGTGCAG")
"8470 fluorescence intensity (a.u.)"
>>> measurement("TTGACTGGGTTTTTCTTTTTTTTTTCTGTTTTGTTGTTTGCGGAGTCACCTAGTGCAG")
"10100 fluorescence intensity (a.u.)"
>>> measurement("TGGGGTTCTTGTTTTTCTTTTCCGGGATCTTTGGGTGATGCGGAGTCACCTAGTGCAG")
"15900 fluorescence intensity (a.u.)"

Consider the additional sequence presented here.
# lookup: TGGGGTTTTCTTTTTTGGGTTGGGTTGATCTTTTGGGTGGCGGAGTCACCTAGTGCAG on OsWRKY34 (Oryza sativa, UniProt Q0JBA9 1-250), binding signal = 36600 fluorescence intensity (a.u.)
